// provenance: paper PMC11480844

B1: H2-Kb / Ed9 (parent complex)
chain 1: AQSVTQPDARVTVSEGASLQLRCKYSYFGTPYLFWYVQYPRQGLQLLLKYYPGDPVVQGVNGFEAEFSKSNSSFHLRKASVHWSDWAVYFCAVSITGGYKVVFGSGTRLLVSP
chain 2: DSGVVQSPRHIIKEKGGRSVLTCIPISGHSNVVWYQQTLGKELKFLIQHYEKVERDKGFLPSRFSVQQFDDYHSEMNMSALELEDSAMYFCASSPRQSDYTFGSGTRLLVI
chain 3: not shown
chain 4: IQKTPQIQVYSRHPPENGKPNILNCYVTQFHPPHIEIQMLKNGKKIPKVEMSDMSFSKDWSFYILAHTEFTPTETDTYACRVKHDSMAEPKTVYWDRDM
chain 5: SIINFEKL

Variants of: B1
Test: % of reporter cells activated (NFAT-GFP), raw; further: test concentration or dose not given here
ENDPOINT NAME: ratio to parent

| VARIANT IDENTIFIER | ENDPOINT NAME | EXPERIMENTAL VALUE |
| --- | --- | --- |
| chain 5 S1C | ratio to parent | 0.147 |
| chain 5 S1Q | ratio to parent | 0.0362 |
| chain 5 K7P | ratio to parent | 0.525 |
| chain 5 N4P | ratio to parent | 0.0766 |
| chain 5 I2C | ratio to parent | 1.22 |
| chain 5 I2L | ratio to parent | 1.31 |
| chain 5 K7F | ratio to parent | 0.296 |
| chain 5 F5E | ratio to parent | 1.03 |
| chain 5 L8P | ratio to parent | 0.817 |
| chain 5 N4C | ratio to parent | 0.0443 |
| chain 5 E6Y | ratio to parent | 0.0945 |
| chain 5 K7E | ratio to parent | 0.226 |
| chain 5 I2D | ratio to parent | 1.21 |
| chain 5 N4I | ratio to parent | 0.41 |
| chain 5 I2Q | ratio to parent | 0.82 |
| chain 5 S1H | ratio to parent | 0.543 |
| chain 5 F5C | ratio to parent | 1.26 |
| chain 5 L8I | ratio to parent | 1.17 |
| chain 5 K7Y | ratio to parent | 0.668 |
| chain 5 F5T | ratio to parent | 1.38 |
| chain 5 K7H | ratio to parent | 0.723 |
| chain 5 N4Q | ratio to parent | 0.0236 |
